As shown below, each of these compounds has a reported GI50 value.
Test system: SK-MEL-2
ASSAY_METHOD_TEXT: NCI tumour cell line growth inhibition, 48 h
Calls of active or inactive are those of the source. Cut-off read from the data, not from the text of the source: active = GI50 up to about 1.1 µM and inactive = higher. Residues, ends and D or L forms follow the SMILES beside them. Groups on a side chain read outwards from the residue. *: point of attachment. Cbz = O=C(OCc1ccccc1)*; Boc = CC(C)(C)OC(=O)*

Sample records with GI50:
COMPOUND: Cc1ccc(-c2nc3cc(F)c(N4CCN(C)CC4)cc3[nH]2)cc1
GI50: 17.1 µM (inactive)
//
COMPOUND: COc1cnnc2c(C)c(-c3ccccc3)nn12
GI50: 40.4 µM (inactive)
//
COMPOUND: COc1ccc2c(c1)[n+]([O-])c(-c1ccc(OC)c(OC)c1)c(N)[n+]2[O-]
GI50: 92.3 µM (inactive)
//
COMPOUND: CCN(CC)CCn1c2cc3c(cc2c(=O)c2cccnc21)OCO3
GI50: 9.91 µM (inactive)
//
COMPOUND: CC#CC(OCC)(OCC)OCC
GI50: > 100 µM (inactive)
//
COMPOUND: COc1cc(OC)cc(Oc2nc3ccccc3nc2C(=O)O)c1
GI50: > 100 µM (inactive)
//
COMPOUND: O=C(NOC(=O)c1ccc([N+](=O)[O-])cc1)c1ccc(Cl)cc1
GI50: > 100 µM (inactive)

Would you kindly look at the next entry?
Sample CC(C)(C)OC(=O)NC(CCCCNC(=O)CNC(=O)OCc1ccccc1)C(=O)NC(CCCCNC(=O)CNC(=O)OCc1ccccc1)C(=O)NC(CCCCNC(=O)CNC(=O)OCc1ccccc1)C(=O)NC(CCCCNC(=O)CNC(=O)OCc1ccccc1)C(=O)O (stereo not drawn) (Boc-K([Gly-Cbz])K([Gly-Cbz])K([Gly-Cbz])K([Gly-Cbz])-OH; configuration not given here) — what was its GI50?
> 100 µM (inactive)

* * *

System: CAKI-1
ASSAY_METHOD_TEXT: NCI tumour cell line growth inhibition, 48 h
Calls of active or inactive are those of the source. Rule as the data show it: active = GI50 up to about 1.1 µM and inactive = higher.
// classify into true (active), false (inactive)

Example entries and their recorded answers appear below.
COMPOUND: COc1ccc2c(c1)[n+]([O-])c(-c1ccc(OC)c(OC)c1)c(N)[n+]2[O-]
CATEGORY: false
--
COMPOUND: Cc1nc2ccccc2c(=O)n1/N=C(\N=N\c1ccc(Cl)cc1)c1cccc(-c2ccco2)c1
CATEGORY: false
--
COMPOUND: [O-][n+]1c(-c2ccccc2)c2nc3ccccc3nc2c2ccccc21
CATEGORY: false
--
COMPOUND: Fc1ccc(C2SCc3nc4ccccc4n32)cc1F (centres undefined)
CATEGORY: false
--
COMPOUND: O=C1c2ccccc2-c2nc(-c3cccs3)cc3c2c1nc1ccccc13
CATEGORY: false
--
COMPOUND: C#CC1(O)CCCCCCCCC2(CCCCCCCC1)OCCO2
CATEGORY: false

GET /call?item= CC(=O)Nc1ccc2c(c1)[nH]c(=O)c1cc(Cl)ccc12 returns the recorded outcome of this test.
true

Let us now turn to CCCSS[C@H]1NC(=O)[C@H]1NC(=O)COc1ccccc1
false

Also check O=C(CCCn1cnc([N+](=O)[O-])n1)NCCn1ccnc1[N+](=O)[O-]
false

* * *

Test system: HCT-116
ASSAY_METHOD_TEXT: NCI tumour cell line growth inhibition, 48 h
Calls of active or inactive are those of the source. Rule as the data show it: active = GI50 up to about 1.1 µM and inactive = higher.
Mark one answer only. Choices: true (1) = active, false (0) = inactive

Completed entries (count: 6):
COMPOUND: CC(c1ccccc1)C(O)S(=O)(=O)O (configuration not stated)
CATEGORY: false (0)
--
COMPOUND: CNS(=O)(=O)NN(C)S(=O)(=O)c1ccc2ccccc2c1
CATEGORY: false (0)
--
COMPOUND: COc1cccc(-c2cc(O)c3cc(N4CCN(C)CC4)ccc3n2)c1
CATEGORY: true (1)
--
COMPOUND: CCCCCC(C(O)C#N)C(O)(C(F)(F)F)C(F)(F)F (configuration not stated)
CATEGORY: false (0)
--
COMPOUND: OC(C1=C/C(=C\c2ccncc2)c2ccccc21)c1ccncc1 (configuration not stated)
CATEGORY: false (0)
--
COMPOUND: N#Cc1cccc(NC(=O)c2ccc(C(=O)O)c(C(=O)c3ccc(C(=O)O)c(C(=O)Nc4cccc(C#N)c4)c3)c2)c1
CATEGORY: false (0)

I'd appreciate the recorded outcome for COc1ccc2c(O)c(S(=O)(=O)c3ccc(C)cc3)c(=O)oc2c1OC from this test.
false (0)

How about N/C1=C/C(=O)NC(=O)c2c(c3ccccc3oc2=O)C1 ?
false (0)

Can you check COc1ccc(CC2NCCc3cc(OC)c(OC)cc32)cc1 (configuration not stated) next?
false (0)

* * *

Test system: SNB-19
ASSAY_METHOD_TEXT: NCI tumour cell line growth inhibition, 48 h
Active and inactive are the calls of the source. Rule as the data show it: active = GI50 up to about 1.1 µM and inactive = higher.
REPORTED_PROPERTY: GI50

Study these solved cases before continuing.
COMPOUND: O=C(CC(=O)C1CCOC1=O)C(=O)Nc1ccc(Cl)cc1 (configuration not stated)
GI50: > 100 µM (inactive)
--
COMPOUND: CCOC(=O)C(C(=O)c1ccccc1C(=O)OC)=P(c1ccccc1)(c1ccccc1)c1ccccc1
GI50: > 10 µM (inactive)
--
COMPOUND: COc1ccc2c(O)c3[n+](cc2c1OC)CCc1cc2c(cc1-3)OCO2
GI50: > 100 µM (inactive)
--
COMPOUND: CC(C)NCCC(O)c1cc2ccccc2o1 (configuration not stated)
GI50: > 100 µM (inactive)
--
COMPOUND: Cc1c2c(OCCN3CCCCC3)nn(C)c(=O)c2c(C)n1-c1ccccc1
GI50: 77.1 µM (inactive)

Record request: GI50 value, item COC(=O)c1cccc(COc2ccc([N+](=O)[O-])cc2Cl)c1
> 100 µM (inactive)

One more compound: O[C@H]1[C@H]2[C@H](O)CCCN2C[C@H]1O
> 100 µM (inactive)

Continue with COc1cccc(OCC(=N/NC(=O)c2ccncc2)/N=C/c2cccnc2)c1
> 100 µM (inactive)

Request: Nc1ccc2nc(NCc3ccc(F)cc3)cnc2c1
44.5 µM (inactive)

What do you have for CC[C@@]1(C)CCC2c3ccc(O)cc3CC[C@H]2C1C (some centres not stated) ?
17.5 µM (inactive)

What do we get for N/C(S)=N/N=C/c1cc(CN2CCOCC2)c(N)cn1 ?
47.1 µM (inactive)

Same for NC1CC(=O)c2c1sc(Cl)c2Cl (configuration not stated)
> 100 µM (inactive)

Similarly, COc1ccccc1NC(=S)NNC(=O)c1cc(-c2ccccc2)nc2ccccc12 ?
24.5 µM (inactive)

Record: Cc1cc2c(cc1-c1cc3c(cc1C)C(C(C)C)=C(O)C(=O)/C3=C\Nc1nc(-c3ccccc3)cs1)/C(=C/Nc1nc(-c3ccccc3)cs1)C(=O)C(O)=C2C(C)C
17.1 µM (inactive)

Repeat for the following compound: COC(=O)CCC(NC(=S)N/N=C(\C)c1ccco1)C(=O)OC (configuration not stated)
> 100 µM (inactive)

Do the same for CCOC(=O)C(=Cc1cc(OC)ccc1OC)C(=O)OCC please
11.9 µM (inactive)

Also check CCN(CC)/[N+]([O-])=N/O
> 100 µM (inactive)

* * *

System: 786-0
ASSAY_METHOD_TEXT: NCI tumour cell line growth inhibition, 48 h
The source made the active and inactive calls. No stated cut-off is given here; in the data, active = GI50 up to about 1.1 µM and inactive = higher.
Answer with one of the outcomes 1 (yes) for active, 0 (no) for inactive

Study these solved cases before continuing.
MOLECULE: COc1ccc2cc3n(c2c1)CCc1cc(OC)c(OC)cc1-3
CATEGORY: 0 (no)

MOLECULE: CS(=O)(=O)NNS(=O)(=O)c1ccccc1
CATEGORY: 0 (no)

MOLECULE: CCOC(=O)c1cc(C2CCN(Cc3ccccc3)C2=O)c(C(=O)C(=[N+]=[N-])C(C)=O)[nH]1 (stereo not drawn)
CATEGORY: 0 (no)

MOLECULE: COc1cc(/C=C2\[C@H]3c4c(c(OC)c(C)c(OC)c4OC)C[C@@H](C(=O)N2Cc2ccccc2)N3C(=O)OC(C)C)c(OC)c(C)c1OC
CATEGORY: 0 (no)

Here is the next item to consider.
Entry Cc1nc2c(=S)n(C)ncc2[nH]1 : call = ?
0 (no)

* * *

Tested on: SK-MEL-5
ASSAY_METHOD_TEXT: NCI tumour cell line growth inhibition, 48 h
The source made the active and inactive calls. Cut-off read from the data, not from the text of the source: active = GI50 up to about 1.1 µM and inactive = higher.
Could you please pick one outcome from this set? active, inactive

The following compounds have reported results that may help.
COMPOUND: Cc1nc2c(=S)n(C)ncc2[nH]1
TESTED_ON: SK-MEL-5
CATEGORY: inactive
//
COMPOUND: CCOc1ccc(NC(=S)N/C=C(/C(C)=O)C(=O)Nc2ccccc2C)cc1
TESTED_ON: SK-MEL-5
CATEGORY: inactive
//
COMPOUND: O=C(O)c1ccc(O)c(/N=N/c2cc(S(=O)(=O)O)c3ccccc3c2O)c1
TESTED_ON: SK-MEL-5
CATEGORY: inactive
//
COMPOUND: CC/C(=N/O)c1ccc2[nH]c3c(C)cc([N+](=O)[O-])c(C)c3c2c1
TESTED_ON: SK-MEL-5
CATEGORY: inactive
//
COMPOUND: CCOC(=O)CCC(NC(=O)c1ccc(N2CCN(c3c(C)nc(N)nc3N)CC2)cc1)C(=O)OCC (centres undefined)
TESTED_ON: SK-MEL-5
CATEGORY: active
//
COMPOUND: O=C(NNC(=S)Nc1ccccc1)c1nsc2ccccc12
TESTED_ON: SK-MEL-5
CATEGORY: inactive
//
COMPOUND: CC[C@@]1(C)CCC2c3ccc(O)cc3CC[C@H]2C1C (some centres undefined)
TESTED_ON: SK-MEL-5
CATEGORY: inactive
//
COMPOUND: CCOC(=O)/C(C#N)=C\Sc1ccccc1
TESTED_ON: SK-MEL-5
CATEGORY: inactive

Let us examine a further case.
Dear colleague, could you share the recorded outcome for C1CC[N+]23CCCC[N+]2(C1)CCCC3 (centres undefined) when you have a moment?
inactive
